Below, each entry is listed alongside its reported IC50.
Tested on: Staphylococcus aureus
Assay: Antibacterial activity against Staphylococcus aureus NCIM 2010 after 12 hrs
Format: functional, organism-based
Details: NCIM 2010, 12 h
Kindly provide the numeric value in µg/mL only, without the unit symbol.

For orientation, consider the following solved cases.
{"columns": ["molecule", "studySystem", "IC50, µg/mL"],
 "data": [
  ["COc1ccc(/C=C\\C(=O)N2N=C(c3ccncc3)OC2c2c[nH]c3ccccc23)cc1 (stereo not drawn)", "Staphylococcus aureus", 7.72],
  ["Cc1ccc(/C=C\\C(=O)N2N=C(c3ccncc3)OC2c2c[nH]c3ccccc23)cc1 (stereo not drawn)", "Staphylococcus aureus", 5.73],
  ["O=C(/C=C\\c1ccccc1[N+](=O)[O-])N1N=C(c2ccncc2)OC1c1c[nH]c2ccccc12 (stereo not drawn)", "Staphylococcus aureus", 21.1]
]}

Identify measured IC50 corresponding to O=C(/C=C\c1cccc([N+](=O)[O-])c1)N1N=C(c2ccncc2)OC1c1c[nH]c2ccccc12 (stereo not drawn)
21.7

Identify measured IC50 corresponding to O=C(/C=C\c1cccc(Cl)c1)N1N=C(c2ccncc2)OC1c1c[nH]c2ccccc12 (stereo not drawn)
14.5

Identify measured IC50 corresponding to O=C(/C=C\c1ccccc1)N1N=C(c2ccncc2)OC1c1c[nH]c2ccccc12 (stereo not drawn)
11.9

Identify measured IC50 corresponding to O=C(/C=C\c1ccc([N+](=O)[O-])cc1)N1N=C(c2ccncc2)OC1c1c[nH]c2ccccc12 (stereo not drawn)
12.7

Identify measured IC50 corresponding to O=C(/C=C/c1c(Cl)cccc1Cl)N1N=C(c2ccncc2)OC1c1c[nH]c2ccccc12 (stereo not drawn)
86.8

Identify measured IC50 corresponding to O=C(/C=C\c1cccc(Cl)c1Cl)N1N=C(c2ccncc2)OC1c1c[nH]c2ccccc12 (stereo not drawn)
7.59

Identify measured IC50 corresponding to O=C(/C=C\c1ccccc1Cl)N1N=C(c2ccncc2)OC1c1c[nH]c2ccccc12 (stereo not drawn)
3.33

Identify measured IC50 corresponding to O=C(/C=C\c1cccc(Br)c1)N1N=C(c2ccncc2)OC1c1c[nH]c2ccccc12 (stereo not drawn)
2.01

====

Test: Selectivity index, ratio of GI50 for human PANC1 cells to MIC for dormant state Mycobacterium bovis BCG ATCC 35734
Assay type: toxicity, cell-based, PANC-1
Details: read-out: Selectivity Index
outcomeMeasure: selectivity ratio

{"columns": ["compound", "observedResult"],
 "data": [
  ["O=C(/C=C\\c1ccc(Cl)cc1Cl)N1N=C(c2ccncc2)OC1c1c[nH]c2ccccc12 (stereo unspecified)", "> 6.03"],
  ["O=C(/C=C\\c1ccccc1O)N1N=C(c2ccncc2)OC1c1c[nH]c2ccccc12 (stereo unspecified)", "> 25.2"],
  ["NNC(=O)c1ccncc1 [ISONIAZID]", "> 2560"],
  ["CO[C@H]1/C=C/O[C@@]2(C)Oc3c(C)c(O)c4c(O)c(c(/C=N/N5CCN(C)CC5)c(O)c4c3C2=O)NC(=O)/C(C)=C\\C=C\\[C@H](C)[C@H](O)[C@@H](C)[C@@H](O)[C@@H](C)[C@H](OC(C)=O)[C@@H]1C [RIFAMPIN]", "> 2700"],
  ["O=C(/C=C\\c1ccc([N+](=O)[O-])cc1)N1N=C(c2ccncc2)OC1c1c[nH]c2ccccc12 (stereo unspecified)", "> 12.7"]
]}

Identify measured selectivity ratio corresponding to O=C(/C=C\c1ccccc1[N+](=O)[O-])N1N=C(c2ccncc2)OC1c1c[nH]c2ccccc12 (stereo unspecified)
> 35.3

====

Test system: Mycobacterium tuberculosis
Test: Antitubercular activity against active state Mycobacterium tuberculosis H37Ra assessed as viable cells after 8 days by XTT reduction menadione assay
Type: functional, organism-based
Conditions: 192 h
outcomeMeasure: MIC

For orientation, consider the following solved cases.
{"columns": ["molecule", "outcomeMeasure", "observedResult"],
 "data": [
  ["O=C(/C=C\\c1ccccc1[N+](=O)[O-])N1N=C(c2ccncc2)OC1c1c[nH]c2ccccc12 (stereo not drawn)", "MIC", "> 30 µg/mL"],
  ["NNC(=O)c1ccncc1", "MIC", "0.031 µg/mL"]
]}

Identify measured MIC corresponding to CO[C@H]1/C=C/O[C@@]2(C)Oc3c(C)c(O)c4c(O)c(c(/C=N/N5CCN(C)CC5)c(O)c4c3C2=O)NC(=O)/C(C)=C\C=C\[C@H](C)[C@H](O)[C@@H](C)[C@@H](O)[C@@H](C)[C@H](OC(C)=O)[C@@H]1C
0.041 µg/mL

Identify measured MIC corresponding to O=C(/C=C\c1ccc(F)cc1)N1N=C(c2ccncc2)OC1c1c[nH]c2ccccc12 (stereo not drawn)
> 30 µg/mL

Identify measured MIC corresponding to O=C(/C=C\c1cccc(Br)c1)N1N=C(c2ccncc2)OC1c1c[nH]c2ccccc12 (stereo not drawn)
> 30 µg/mL

Identify measured MIC corresponding to O=C(/C=C\c1cccc(O)c1)N1N=C(c2ccncc2)OC1c1c[nH]c2ccccc12 (stereo not drawn)
> 30 µg/mL

Identify measured MIC corresponding to O=C(/C=C\c1ccc(Br)cc1)N1N=C(c2ccncc2)OC1c1c[nH]c2ccccc12 (stereo not drawn)
> 30 µg/mL

Identify measured MIC corresponding to O=C(/C=C\c1ccccc1Cl)N1N=C(c2ccncc2)OC1c1c[nH]c2ccccc12 (stereo not drawn)
> 30 µg/mL

====

Below, each entry is listed alongside its reported selectivity ratio.
Assay: Selectivity index, ratio of GI50 for human A549 cells to MIC for dormant state Mycobacterium bovis BCG ATCC 35734
Type: toxicity, cell-based
Conditions: read-out: Selectivity Index

For orientation, consider the following solved cases.
{"columns": ["molecule", "selectivity ratio"],
 "data": [
  ["NNC(=O)c1ccncc1", "> 2560"],
  ["O=C(/C=C\\c1ccc(Cl)cc1Cl)N1N=C(c2ccncc2)OC1c1c[nH]c2ccccc12 (stereo unspecified)", "> 6.03"],
  ["O=C(/C=C\\c1ccccc1[N+](=O)[O-])N1N=C(c2ccncc2)OC1c1c[nH]c2ccccc12 (stereo unspecified)", "> 35.3"],
  ["O=C(/C=C\\c1ccccc1O)N1N=C(c2ccncc2)OC1c1c[nH]c2ccccc12 (stereo unspecified)", "> 25.2"]
]}

Identify measured selectivity ratio corresponding to CO[C@H]1/C=C/O[C@@]2(C)Oc3c(C)c(O)c4c(O)c(c(/C=N/N5CCN(C)CC5)c(O)c4c3C2=O)NC(=O)/C(C)=C\C=C\[C@H](C)[C@H](O)[C@@H](C)[C@@H](O)[C@@H](C)[C@H](OC(C)=O)[C@@H]1C
> 2700

Identify measured selectivity ratio corresponding to O=C(/C=C\c1ccc([N+](=O)[O-])cc1)N1N=C(c2ccncc2)OC1c1c[nH]c2ccccc12 (stereo unspecified)
> 12.7

====

Below, each entry is listed alongside its reported MIC.
Tested on: Bacillus subtilis
Experiment: Antibacterial activity against Bacillus subtilis NCIM 2079 after 12 hrs
Format: functional, organism-based
Details: NCIM 2079, 12 h

For orientation, consider the following solved cases.
{"columns": ["compound", "MIC"],
 "data": [
  ["O=C(/C=C\\c1cccc(Cl)c1)N1N=C(c2ccncc2)OC1c1c[nH]c2ccccc12 (centres undefined)", "> 256 µg/mL"],
  ["COc1ccc(/C=C\\C(=O)N2N=C(c3ccncc3)OC2c2c[nH]c3ccccc23)cc1 (centres undefined)", "156 µg/mL"],
  ["O=C(/C=C\\c1ccccc1O)N1N=C(c2ccncc2)OC1c1c[nH]c2ccccc12 (centres undefined)", "> 256 µg/mL"],
  ["O=C(/C=C/c1c(Cl)cccc1Cl)N1N=C(c2ccncc2)OC1c1c[nH]c2ccccc12 (centres undefined)", "> 256 µg/mL"],
  ["O=C(/C=C\\c1ccc(Cl)cc1Cl)N1N=C(c2ccncc2)OC1c1c[nH]c2ccccc12 (centres undefined)", "> 256 µg/mL"],
  ["O=C(/C=C\\c1ccccc1[N+](=O)[O-])N1N=C(c2ccncc2)OC1c1c[nH]c2ccccc12 (centres undefined)", "> 256 µg/mL"],
  ["O=C(/C=C\\c1ccc([N+](=O)[O-])cc1)N1N=C(c2ccncc2)OC1c1c[nH]c2ccccc12 (centres undefined)", "31.4 µg/mL"],
  ["O=C(/C=C\\c1ccccc1Cl)N1N=C(c2ccncc2)OC1c1c[nH]c2ccccc12 (centres undefined)", "22 µg/mL"]
]}

Proceeding to the next compound to report its MIC.
Identify measured MIC corresponding to O=C(/C=C\c1ccc(Br)cc1)N1N=C(c2ccncc2)OC1c1c[nH]c2ccccc12 (centres undefined)
> 256 µg/mL

====

Tested on: Pseudomonas fluorescens
Assay: Antibacterial activity against Pseudomonas fluorescens NCIM 2036 after 8 hrs
Type: functional, organism-based
Settings: NCIM 2036, 8 h
outcomeMeasure: IC50 (µg/mL)
Kindly provide the numeric value in µg/mL only, without the unit symbol.

For orientation, consider the following solved cases.
{"columns": ["compound", "observedResult"],
 "data": [
  ["O=C(/C=C\\c1ccccc1[N+](=O)[O-])N1N=C(c2ccncc2)OC1c1c[nH]c2ccccc12 (centres undefined)", 19.2],
  ["Cc1ccc(/C=C\\C(=O)N2N=C(c3ccncc3)OC2c2c[nH]c3ccccc23)cc1 (centres undefined)", 4.13],
  ["O=C(/C=C\\c1ccc(Br)cc1)N1N=C(c2ccncc2)OC1c1c[nH]c2ccccc12 (centres undefined)", 10.4]
]}

Proceeding to the next compound to report its IC50.
Identify measured IC50 corresponding to CC1(C)S[C@@H]2[C@H](NC(=O)[C@H](N)c3ccccc3)C(=O)N2[C@H]1C(=O)O
1.87

Provenance of the data: ChEMBL document CHEMBL3779770
